Could you please report measured growth for the items listed next?
Test system: HT29 colon
EXPERIMENT DESCRIPTION: NCI-60 one-dose screen, 48 h (100 = growth as untreated, 0 = no growth, -100 = all killed)
ASSAY SETUP: 10 µM unless noted
This is part of a sample that, as a whole, favours compounds with a hit. Of some 83,000 tested, about 20% had one in any assay.
Answers are plain numbers, in %.

# example entries with known answers
Cc1ncc(C(=O)Nc2ccc(CN3CCN(C)CC3)c(C(F)(F)F)c2)cc1C#Cc1cnc(N)cc1C#N
-86.2
CNC(=O)c1cccc(Cn2nc(C)c(NC(=O)c3ccc(COc4ccc(C(F)(F)F)cc4C)cc3)c2C)c1
44.4
COc1ccc(C(=O)c2cc(C)c(OC)c(C)c2)c(OC)c1N(C(=O)CCl)C(=O)CCl
3.24
O=C(Cn1c(C(=O)c2ccccc2)nc2ccccc21)c1ccc(F)cc1
23.3

Next up:
stdin: For the compound `COCCCN1CC(O)=C(c2nc(-c3ccc(C)cc3)cs2)C1=N` , give its reported growth.
stdout: 128
